- System: HT29 colon
- method-description: NCI tumour cell line growth inhibition, 48 h

- compound: "CCOC(=O)N(c1ccccc1)c1cc(=O)n2ccccc2n1"
  TGI: "> 100 µM"
- compound: "C=CC(C)(O)/C=C/C=C(\\C)C(CC1OC1(C)C)OC(=O)/C(C)=C\\C (stereo unspecified)"
  TGI: "> 100 µM"
- compound: "O=C1C(c2c(O)[nH]c3ccc(S(=O)(=O)O)cc23)=Nc2ccc(Br)cc21"
  TGI: "> 100 µM"
- compound: "Cc1ccc(/C(=C\\C(=O)C(=O)NC23CC4CC(CC(C4)C2)C3)Sc2ccccc2)cc1"
  TGI: "> 10 µM"
- compound: "O=c1cc(N2CCNCC2)oc2c(-c3ccccc3)cccc12"
  TGI: "> 100 µM"
- compound: "O=C1c2ccccc2C(=O)c2c(NCCNCCO)ccc(O)c21"
  TGI: "10.2 µM"
